Data origin: PubChem BioAssay AID1259407

# System: CCRIS mutagenicity, Ames/micronucleus/aberration tests
# TEST_SUMMARY: CCRIS mutagenicity studies
# CONDITION_SUMMARY: Test System: AMES SALMONELLA TYPHIMURIUM; Strain/Indicator: TA100; Metabolic Activation: HAMSTER, LIVER, S-9, AROCLOR 1254; Method: PREINCUBATION
The source made the active and inactive calls. How the calls were made is not given here.
Respond only with the outcome that fits, drawn from t = active, f = inactive

Solved cases below.
[[record]]
compound = "CCc1ccccc1"
group = "f"

[[record]]
compound = "c1ccc2occc2c1"
group = "f"

[[record]]
compound = "CNc1ccc(N(CCO)CCO)cc1[N+](=O)[O-]"
group = "t"

[[record]]
compound = "O=C1CCC(=O)O1"
group = "f"

[[record]]
compound = "c1ccc(Oc2ccccc2)cc1"
group = "f"


In: Recorded call for ClC1(Cl)C2(Cl)C3(Cl)C4(Cl)C(Cl)(Cl)C5(Cl)C3(Cl)C1(Cl)C5(Cl)C24Cl (stereo not drawn) ?
Out: f

In: Recorded call for Clc1cc(Cl)c(Cl)c(Cl)c1Cl ?
Out: f

In: Recorded call for Clc1c(Cl)c(Cl)c2ccccc2c1Cl ?
Out: f

====

# Tested on: CCRIS mutagenicity, Ames/micronucleus/aberration tests
# TEST_SUMMARY: CCRIS mutagenicity studies
# CONDITION_SUMMARY: Test System: AMES SALMONELLA TYPHIMURIUM; Strain/Indicator: TA7001; Metabolic Activation: NONE; Method: PREINCUBATION
Active and inactive are the calls of the source. The rule behind the calls is not given here.
Respond only with the outcome that fits, drawn from active, inactive

[[record]]
chemical_string = "O=[N+]([O-])c1ccc2c(ccc3cc([N+](=O)[O-])ccc32)c1"
group = "active"

[[record]]
chemical_string = "O=[N+]([O-])c1ccc2c(ccc3ccccc32)c1"
group = "active"

[[record]]
chemical_string = "O=c1oc2ccc([N+](=O)[O-])cc2c2ccccc12"
group = "inactive"


Proceed to the following item.
In: Recorded call for O=[N+]([O-])c1ccc2c3c(cccc13)-c1ccccc1-2 ?
Out: active

====

# Tested on: CCRIS mutagenicity, Ames/micronucleus/aberration tests
# TEST_SUMMARY: CCRIS mutagenicity studies
# CONDITION_SUMMARY: Test System: AMES SALMONELLA TYPHIMURIUM; Strain/Indicator: TA1537; Metabolic Activation: RAT, LIVER, S-9, AROCLOR 1254 (10%); Method: STANDARD PLATE
The source made the active and inactive calls. How the calls were made is not given here.
Respond only with the outcome that fits, drawn from active, inactive

Solved cases below.
[[record]]
molecule = "CCN(CC)c1ccc(C(=C2C=CC(=[N+](CC)CC)C=C2)c2ccc(N(CC)CC)cc2)cc1"
system_under_test = "CCRIS mutagenicity, Ames/micronucleus/aberration tests"
group = "inactive"

[[record]]
molecule = "C[C@]12C=CC(=O)C=C1CC[C@@H]1[C@@H]2C(=O)C[C@@]2(C)[C@H]1CC[C@]2(O)C(=O)CO"
system_under_test = "CCRIS mutagenicity, Ames/micronucleus/aberration tests"
group = "inactive"

[[record]]
molecule = "CCCCC(CC)COC(=O)c1ccc(N(C)C)c([N+](=O)[O-])c1 (stereo not given)"
system_under_test = "CCRIS mutagenicity, Ames/micronucleus/aberration tests"
group = "active"


In: Recorded call for Oc1ccccc1-c1ccccc1 ?
Out: inactive

In: Recorded call for C[CH2][Ge]([Cl])([CH2]C)[CH2]C ?
Out: inactive

====

# System: CCRIS mutagenicity, Ames/micronucleus/aberration tests
# TEST_SUMMARY: CCRIS mutagenicity studies
# CONDITION_SUMMARY: Test System: E. COLI; Strain/Indicator: WP2 (PKM101); Metabolic Activation: NONE; Method: STANDARD PLATE
The source made the active and inactive calls. The rule behind the calls is not given here.
Respond only with the outcome that fits, drawn from active, inactive

Solved cases below.
[[record]]
chemical_string = "Oc1cccc(O)c1O"
group = "active"

[[record]]
chemical_string = "CC(=O)CC(=O)Nc1ccc(C)cc1"
group = "inactive"

[[record]]
chemical_string = "CC(Br)Br"
group = "inactive"

[[record]]
chemical_string = "C[n+]1c2ccccc2nc2ccccc21"
group = "inactive"

[[record]]
chemical_string = "NNc1ccccc1"
group = "active"


Proceed to the following item.
In: Recorded call for O=BOO ?
Out: active

====

# Test system: CCRIS mutagenicity, Ames/micronucleus/aberration tests
# TEST_SUMMARY: CCRIS mutagenicity studies
# CONDITION_SUMMARY: Test System: AMES SALMONELLA TYPHIMURIUM; Strain/Indicator: TA98; Metabolic Activation: HAMSTER, LIVER, S-9, AROCLOR 1254; Method: PREINCUBATION
The source made the active and inactive calls. The rule behind the calls is not given here.
ATTRIBUTE_MEASURED: mutagenic call

Check out these entries, answers already filled in.
[[record]]
compound = "O=[N+]([O-])c1cccc2cccc([N+](=O)[O-])c12"
meas_value = "active; positive"

[[record]]
compound = "Clc1cc(Cl)c(Cl)c(Cl)c1Cl"
meas_value = "inactive; negative"

[[record]]
compound = "Oc1c(Cl)c(Cl)c(Cl)c(Cl)c1Cl"
meas_value = "inactive; negative"

[[record]]
compound = "Brc1ccccc1-c1ccccc1"
meas_value = "inactive; negative"

[[record]]
compound = "Clc1c(Cl)c(Cl)c2ccccc2c1Cl"
meas_value = "inactive; negative"

[[record]]
compound = "CNc1ccc(N(CCO)CCO)cc1[N+](=O)[O-]"
meas_value = "active; positive"

[[record]]
compound = "CCN(N=O)c1ccccc1"
meas_value = "inactive; negative"

[[record]]
compound = "Cc1cccc(C)c1N"
meas_value = "inactive; negative"

[[record]]
compound = "Brc1ccc(-c2ccccc2)cc1"
meas_value = "inactive; negative"

[[record]]
compound = "c1ccc(Nc2ccc3ccccc3c2)cc1"
meas_value = "inactive; negative"


Respectfully, I request mutagenic call for each entry included below.
1. O=C1CCC(=O)O1
2. c1ccc(Oc2ccccc2)cc1
3. OCC1CO1 (stereo unspecified)
4. Brc1cccc(-c2ccccc2)c1

Out:
1. inactive; negative
2. inactive; negative
3. active; positive
4. inactive; negative

Respectfully, I request mutagenic call for each entry included below.
1. Clc1ccccc1Cl
2. Nc1ccccc1[N+](=O)[O-]

Out:
1: inactive; negative; 2: inactive; negative

====

# Test system: CCRIS mutagenicity, Ames/micronucleus/aberration tests
# TEST_SUMMARY: CCRIS mutagenicity studies
# CONDITION_SUMMARY: Test System: AMES SALMONELLA TYPHIMURIUM; Strain/Indicator: TA1535; Metabolic Activation: S-9; Method: PREINCUBATION
Calls of active or inactive are those of the source. How the calls were made is not given here.
ATTRIBUTE_MEASURED: mutagenic call

[[record]]
chemical_string = "O=C(O)C[C@H](O)C[C@H](O)/C=C/c1c(C2CC2)nc2ccccc2c1-c1ccc(F)cc1"
system_under_test = "CCRIS mutagenicity, Ames/micronucleus/aberration tests"
meas_value = "inactive; negative"

[[record]]
chemical_string = "COc1cc(OC)c(Cl)c(-n2c(-c3ccccc3)cc(=O)c(C)c2-c2ccc(F)cc2)c1"
system_under_test = "CCRIS mutagenicity, Ames/micronucleus/aberration tests"
meas_value = "inactive; negative"

[[record]]
chemical_string = "Nc1ccc(O)c(C(=O)O)c1"
system_under_test = "CCRIS mutagenicity, Ames/micronucleus/aberration tests"
meas_value = "inactive; negative"

[[record]]
chemical_string = "C=CC(O)C=C"
system_under_test = "CCRIS mutagenicity, Ames/micronucleus/aberration tests"
meas_value = "inactive; negative"


====

# Tested on: CCRIS mutagenicity, Ames/micronucleus/aberration tests
# TEST_SUMMARY: CCRIS mutagenicity studies
# CONDITION_SUMMARY: Test System: AMES SALMONELLA TYPHIMURIUM; Strain/Indicator: TA100; Method: PREINCUBATION
The source made the active and inactive calls. No rule for the calls is given here.
Respond only with the outcome that fits, drawn from 1.0 (active), 0.0 (inactive)

Solved cases below.
[[record]]
compound = "CC(O)CN(C)N=O (stereo not given)"
group = 1.0

[[record]]
compound = "Nc1ccccc1[N+](=O)[O-]"
group = 0.0

[[record]]
compound = "CCOc1cccc([N+](=O)[O-])c1"
group = 0.0

[[record]]
compound = "Cc1cc2cc3cc(C)c(N)cc3nc2cc1N"
group = 1.0


Proceed to the following item.
In: Recorded call for CC(=O)CN(CC(C)=O)N=O ?
Out: 1.0

====

# Test system: CCRIS mutagenicity, Ames/micronucleus/aberration tests
# TEST_SUMMARY: CCRIS mutagenicity studies
# CONDITION_SUMMARY: Test System: AMES SALMONELLA TYPHIMURIUM; Strain/Indicator: TA100; Metabolic Activation: NONE; Method: STANDARD PLATE
Activity calls are given as the source filed them. How the calls were made is not given here.
Respond only with the outcome that fits, drawn from Yes (active), No (inactive)

[[record]]
molecule = "N#Cc1ccccc1"
group = "No"


Proceed to the following item.
In: Recorded call for CC(C)(O)CCc1ccc(O)c2c(=O)c3c(O)c4c(cc3oc12)O[C@H]1OC=C[C@@]41O ?
Out: No
